Task for the reader: assign each of the following compounds its reported melting point.

melting point in this record for CN1CCc2ccccc2C(c2ccccc2)C1(C)C (stereo not given) : 92 to 93 °C

Looking up `COC1=C(OC)C(=O)C(CCC(=O)NCC(=O)O)=C(C)C1=O` , I found its melting point recorded as 128 to 130 °C

For this compound ( `CC(C)c1cccc(-n2cnc(CO)c2)c1` ), measured melting point is 76 to 77 °C

melting point reading for `CS(=O)(=O)c1ccc(Oc2cc(OCc3ccccc3)c3[nH]c(-c4nnc(CO)s4)cc3c2)cc1` : 159 to 160 °C

Input `ON(Cc1ccccc1)Cc1ccc(CN(O)Cc2ccccc2)cc1` . Output melting point: 160 to 163 °C

The value of melting point measured for the compound `C=CCOc1ccc(C=NO)c(O)c1` turned out to be 74 to 76 °C

Per the records, this compound ( `CCN(CC)C(=O)c1ccc(C)c(-c2nc(S(C)(=O)=O)nc3c2CNC(=O)N3c2c(F)cccc2F)c1` ) has melting point equal to 132 to 135 °C

For reference, reported melting point for `CCOC(=O)C(=O)Nc1ccccc1Cn1cc(C(=O)OC)c2ccccc21` stands at 174 to 177 °C

compound `COC(=O)C=C1CC(=O)N(c2ccccc2)c2cc(Cl)ccc2N1` , melting point observed: 199 to 201 °C

`C=CCSc1nsc(S)n1` has a reported melting point of 107 to 108 °C

---

Exercise: for every item that follows, state its recorded melting point.

Entry COCC1CCCN1S(=O)(=O)c1ccc2c(c1)C1(OCCCO1)C1=NCC(C)(C)CN12 (stereo not drawn) ; melting point = 169 to 171 °C

Summary for this compound, C/C=C/c1cc(OC)c2c(c1)[C@@H](C)[C@H](c1cc(CO)c(O)c(OC)c1)O2 (relative stereo) : melting point is 117 to 119 °C

Measured melting point, `CCOC(=O)c1cnn(-c2ccc(C(F)(F)F)cc2[N+](=O)[O-])c1N` : 118 to 121 °C

Reported melting point of `COc1cccc(CCNC(=O)N2CCC(Nc3ccc(CCNC[C@H](O)COc4ccc(O)cc4)cc3)CC2)c1` : 103 to 108 °C

Briefly, melting point measured for Cc1c(CO)c2c(c(C)c1NC(=O)NC(C)(C)C)C(c1ccc(C(C)C)cc1)CO2 (single isomer, unassigned; (+)) : 187 to 188 °C

Briefly, melting point measured for Cc1ccc(N2C(=O)C(O)=C(C(=O)c3ccc(C(C)C)cc3)C2c2ccc(Cn3nccn3)cc2)nn1 (stereo not drawn) : 285 °C

Looking up `CC1(C)CCc2c(N3CCOCC3)nc3sc4c(NCCc5ccccn5)ncnc4c3c2C1` , I found its melting point recorded as 238 to 239 °C

# compound `CON=C(C(=O)O)c1nc(N)c(Cl)cc1Cl` ; its melting point = 139 to 144 °C

---

PROPERTY: melting point

Reported melting point of `O=Cc1cc2ccccc2n1-c1cccnc1` : 101 to 103 °C

Briefly, melting point measured for `CNc1cc(C)nc2c(S(=O)(=O)c3ccccc3)c(SC)nn12` : > 230 °C

Notebook: `COC(=O)c1cc(O)nn1-c1ccccc1` , melting point read as 227 to 228 °C

Field melting point (entry `CC(C)(C)c1cc(N=Nc2ccc(Cl)cc2Cl)c(O)c(C(C)(C)C)c1` ) reads 164 to 168 °C

Sure, the documented melting point for `COc1ccc(C(=O)c2c(-c3ccc(OC)cc3)sc3ccccc23)cc1` is 124 to 126 °C

Memo: `CCOP(=O)(/C=C/c1cn(-c2ccccc2)nc1OCc1ccccc1)OCC` , reported melting point: 89 to 90 °C

Short answer for `CN(C)Cc1cc2cc(C(=O)NN)ccc2o1` : melting point was 82 to 92 °C

For record `Cc1c(-c2ccccc2)oc2c(C(=O)NCCCO)cccc2c1=O` the listed melting point is 191 to 193 °C

melting point in this record for `OC[C@@H]1C[C@@H](C2CCCCC2)CN1` : 98 to 99 °C

// melting point value for CC12CCC3c4ccc(C(=O)O)cc4CCC3C1CCC2C(=O)CC1CCCCC1 (configuration not stated) : 239 to 241 °C

Entry `COC=C(C(=O)OC)c1ccccc1CSc1ccccc1` , melting point reported as 71 °C

Record O=S(CCCCNC(P(=O)(O)O)P(=O)(O)O)c1ccccn1 (configuration not stated) . Reported melting point: 235 to 240 °C

Value of melting point reported for the compound `O=C1c2c(Cl)ccc(Cl)c2C(=O)N1CCN1CCC(c2noc3cc(F)ccc23)CC1` is 163 to 164 °C

Short answer for `c1ccc(CSc2nc3ccccc3s2)cc1` : melting point was 39 to 40 °C

// sample O=C(NC1CCN(C2CCCCC2)C1)c1cccc(Br)c1 (configuration not stated) , its melting point was 128 to 130 °C

Reported melting point ( `Cc1c(C(=O)Nc2ncc(CO)s2)nnn1Cc1ccc(Cl)c(Cl)c1` ) = 170 °C

Form field melting point, entry `CC(C)(C)c1cc(CN2CC(N(O)C(=O)Oc3ccccc3)C2)cc(C(C)(C)C)c1O` : 161 to 163 °C

Sure, the documented melting point for `Cc1oc(COc2ccccc2/C=C/CO)nc1-c1ccccc1` is 128 to 129 °C

Sample `CN(CC(=O)OC(C)(C)C)C[C@@H]1CC(c2ccc(-c3ccc(N4C[C@H](Cn5ccnn5)OC4=O)cc3F)cn2)=NO1` ; melting point observed: 180 °C

response.value for `CCOC(=O)c1cc(=O)c2c(OCCOc3ccc([N+](=O)[O-])cc3)cccc2o1` (field: melting point) = 158 to 161 °C

Form: compound = `CCONC(CC)=C1C(=O)OC(CC)=C(Br)C1=O` ; melting point = 76.5 to 77.5 °C

Please fill in: melting point reported for COc1ccc(S(=O)(=O)C(C)(Cc2ccc(-c3ccccc3)cc2)C(=O)NO)cc1 (configuration not stated) = 177 °C

Query `N#CCCCc1ncccc1NS(=O)(=O)c1ccccc1` yields melting point of 80 to 81 °C

In plain terms, CCC(=O)c1cc(C2(c3cccc(-c4cncnc4)c3)N=C(N)N(C)C2=O)cs1 (configuration not stated) has a documented melting point of 167 to 172 °C

// field: melting point; key: `CCCCCNS(=O)(=O)NC(=O)/C(C)=C/c1ccc(OC(C)C)cc1Oc1ncc(C(F)(F)F)cc1Cl` ; value = 138 °C

So, `Nc1c(Br)cc(Br)c(CCC(=O)O)c1Br` ? Its melting point was 195 to 197 °C

# melting point (compound: `CC(C)(C)c1ccc(-c2cc(C=O)cc3c2C(C)(C)CCC3(C)C)cc1` ) is 129 °C

According to the records, this compound CC(O)C(C)C1=C2C(C)(C)C3CCC2(C3)C(C)(C)CC1 (configuration not stated) displays melting point of 119 to 121 °C

compound `O=C(Cc1ccc(O)cc1)c1c(O)cc(O)cc1O` , melting point observed: 259 °C

For record `COc1ccnc(CCc2nc3cc(-c4ccc(OCc5ccccc5)cc4)cnc3[nH]2)c1` the listed melting point is 161 to 162 °C

Record `OCC1(c2ccc(Cl)cc2)CCC1` , field melting point: 53 to 54 °C

Noted for OC(CCN1CCN(c2ccc(F)cc2)CC1)c1cnn2c1CCCC2 (configuration not stated) : its melting point reads 130 to 131 °C

Per the record, `Nc1ncc(CCN2CCN(c3ccccn3)CC2)s1` has melting point of 158 to 161 °C

For reference, reported melting point for `Clc1nc(Cl)c2[nH]nnc2n1` stands at > 260 °C

Note to self: melting point recorded for `O=C(O)c1cc(F)c(O)nc1Nc1ccc(F)cc1` was 216 to 217 °C

Reported melting point of `CN1C(=O)Cn2c(nn(Cc3ccccc3)c2=O)-c2cc(Cl)ccc21` : 120 to 122 °C

# melting point of `O=C(N[C@H]1CC[C@H](CCN2CCN(c3nccc4c3OCC4)CC2)CC1)c1ccc(F)cc1` = 236 °C

Please fill in: melting point reported for `COC(=O)[C@H](CCCCNC(=O)OCc1ccccc1)n1c2ccccc2c2ccccc21` = 97 to 99 °C

melting point measured on `CCOc1ccc(C)c(N(Cc2ccccc2)C(=O)C(C)(C)Br)c1` = 87 to 88 °C

Per the record, `Brc1ccc2cc(N(c3ccccc3)c3ccccc3)ccc2c1` has melting point of 136 to 137 °C

According to the records, this compound `CSc1cc(C(=O)O)cc([N+](=O)[O-])c1C(=O)c1ccccc1` displays melting point of 210 to 213 °C

Lab book: melting point of `NS(=O)(=O)c1cccc2c1C(Cl)=CC2` noted as 100 to 101 °C

Attribution: a melting point compilation (Tetko et al.; mined from patent text by program, amines drawn as free bases though some values may be those of a salt)
